# assayNotes: yeast display, Sf9 membrane polyspecificity reagent, FACS + sequencing; frameworks hold sequencing errors
measuredMetric: polyreactivity (PSR sort gate)

INSERT INTO measurements (chain, measuredmetric, testresult) VALUES
  ('QVQLVESGGGLVQAGGCLRLSCAASGRILYYYAMGWYRQAPGKERELVAAINSSGGSTYYADSVKGRFTISRDNAKNTVYLQMNSLKPEDTAVFYCAALRGNVLWYPPSYFRYDYWGQGTQVTVSS', 'polyreactivity (PSR sort gate)', 'high polyreactivity'),
  ('QVQLVESGGGLVQARGSLRLSCAASGSIFSANAMGWYRQAPVKERELVAAISSSGNTNYADSVKGRFTISRDNAKNTLYLQMNSLKPEDTAVYYCAVELKQVTPGLGYITLDYWGQGTQVTVSS', 'polyreactivity (PSR sort gate)', 'low polyreactivity'),
  ('QVQLVESGGGLVQEGGSLRLSCAASGSIFRVNTMGWYRQAPGKERELVATISSGARTNYADSVKGRFTISRDNAKNTVYLQMNSLKPEDTAVYYCAADRSWGYPRWFTSRYDYWGQGTQVTVSS', 'polyreactivity (PSR sort gate)', 'high polyreactivity'),
  ('QVQLVESGGGLVQAGGSLRLSCAASGSIFRVYAMGWYRQAPGKERELVAAISRGGGTTYYADSVKGRFTISRDNAKNTVYLQMNRLKPEDTAVYYCASEYLGYYYQFDSWGQGTQVTVSS', 'polyreactivity (PSR sort gate)', 'high polyreactivity'),
  ('QVQLVESGGGLVQAGGSLRLSCAASGSIFSRYAMGWYRQAPGKERELVAAISKSGGTTYYADSVKGRFTISRDNAKNTVYLQMNSLKPEDTAVYYCNAKRYRNGSIGMGYWGQGTQVTVSS', 'polyreactivity (PSR sort gate)', 'high polyreactivity'),
  ('QVQLVESGGGLVQAGGSLRLSCAASGRIFGTNAMGWYRQAPGKERELVATITRGGGNTYYADSVKGRFTISRDNAKNTVYLQMNSLKPEDTAVYYCAAKFHRFAWYSHYDYWGQGTQVTVSS', 'polyreactivity (PSR sort gate)', 'low polyreactivity'),
  ('QVQLVESGGGLVQAGGSLRLSCAASGSISKGYAMGWYRQAPGKERELVARISGDGGSTYYADSVKGRFTISRDNAKNTVYLQMNSLKPEDTAVYYCNTRQQFTLTRGVFLHNYWGQGTQVTVSS', 'polyreactivity (PSR sort gate)', 'high polyreactivity'),
  ('QVQLVESGGGLVQAGGSLRLSCAASGGIFWANAMGWHRQAPRKERELVATIHTIGDGTNYADSVKGRFTISRDNAKNTVYLQMNSLKPEDTAVYYCAAPYYYFAVYYGYIFEYDYWGQGTQVTVSS', 'polyreactivity (PSR sort gate)', 'low polyreactivity');

polyreactivity (PSR sort gate) recorded for this sequence, QVQLVESGGGLVQAGGSLRLSCAASGNTFGNYAMGWYRQAPGKERELVAAITTIGGSTYYADSVKGRFTISRDNAKNTVYLQMNRLKPEDTAVYYCAKVENRYPVGKYDYWGQGTQVTVSS , is low polyreactivity

polyreactivity (PSR sort gate) recorded for this sequence, QVQLVESGGGLVQAGGRLRLSCAASGRIFSAYAMGWYRQAPGKERELVAAISRSGGRTYYADSVKGRFTISRDNAKNTVYLQMNSLKPEDTAVYYCAAARFAIVRGDYWGQGTQVTVSS , is high polyreactivity

polyreactivity (PSR sort gate) recorded for this sequence, QVQLVESGGGLVQAGGSLRLSCAASGFTFWPNAMGWYRQAPGKERELVAAINWSGGSTYYADSVKGRFTISRDNAKNSVYLQMNSLKPEDTAVYYCNADPYLLEHDYWGQGTQVSVSS , is low polyreactivity
